Assay: self-splicing fitness, log relative to wild type (ln ratio); higher = more splicing; Tetrahymena group I intron in knt gene, E. coli kanamycin selection, DiMSum; sequences stand for … in CUCUCU…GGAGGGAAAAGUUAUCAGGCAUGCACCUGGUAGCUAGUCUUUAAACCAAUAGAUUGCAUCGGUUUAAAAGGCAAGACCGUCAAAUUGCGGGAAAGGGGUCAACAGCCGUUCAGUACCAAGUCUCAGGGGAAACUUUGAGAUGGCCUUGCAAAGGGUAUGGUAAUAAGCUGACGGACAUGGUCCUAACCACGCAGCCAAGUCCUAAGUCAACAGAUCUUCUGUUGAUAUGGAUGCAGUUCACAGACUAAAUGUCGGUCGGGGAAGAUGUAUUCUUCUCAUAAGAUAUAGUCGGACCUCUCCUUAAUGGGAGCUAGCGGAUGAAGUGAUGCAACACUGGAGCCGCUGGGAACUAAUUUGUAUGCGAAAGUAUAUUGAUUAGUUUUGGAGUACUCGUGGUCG;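 note: selection with 25 µg/mL kanamycin versus none on LB agar overnight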
Conditions: 37 °C
Each entry below lists one item and its recorded self-splicing fitness (ln) value.
measuredProperty: self-splicing fitness (ln)

INSERT INTO measurements (sequenceinput, measuredproperty, testvalue) VALUES
  ('UUAAAGCAAUAUUACGACUC', 'self-splicing fitness (ln)', -0.0274),
  ('ACCAAGCAAUAUUACGAACA', 'self-splicing fitness (ln)', -0.543),
  ('AACGAGCAAUAUUACGAACG', 'self-splicing fitness (ln)', -1.37),
  ('UAAUAGCAAUAUUACGUGUA', 'self-splicing fitness (ln)', -0.918),
  ('UAGCAGCAAUAUUACGGUCG', 'self-splicing fitness (ln)', 0.482),
  ('UAGGAGCAAUAUUACGCAGU', 'self-splicing fitness (ln)', -1.96),
  ('GGUAAGCAAUAUUACGAGGG', 'self-splicing fitness (ln)', -2.98),
  ('GAUCAGCAAUAUUACGGAGC', 'self-splicing fitness (ln)', -0.552);

---

Assay: self-splicing fitness, log relative to wild type (ln ratio); higher = more splicing; Tetrahymena group I intron in knt gene, E. coli kanamycin selection, DiMSum; sequences stand for … in CUCUCU…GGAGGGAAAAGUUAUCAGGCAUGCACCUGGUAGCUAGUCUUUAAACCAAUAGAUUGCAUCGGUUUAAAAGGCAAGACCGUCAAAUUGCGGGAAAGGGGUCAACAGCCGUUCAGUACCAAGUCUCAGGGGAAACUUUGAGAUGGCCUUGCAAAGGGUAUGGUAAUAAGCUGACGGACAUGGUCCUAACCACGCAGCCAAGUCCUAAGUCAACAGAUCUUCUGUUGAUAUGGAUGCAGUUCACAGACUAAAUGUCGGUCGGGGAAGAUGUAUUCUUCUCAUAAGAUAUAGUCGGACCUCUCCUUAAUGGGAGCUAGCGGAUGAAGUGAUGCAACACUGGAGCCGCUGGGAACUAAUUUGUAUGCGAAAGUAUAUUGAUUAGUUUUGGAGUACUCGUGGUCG
Settings: 30 °C
measuredProperty: self-splicing fitness (ln)

INSERT INTO results (sequenceinput, testvalue) VALUES
  ('AUAGAGCAAUAUUACGUACU', -0.65),
  ('GUCAAGCAAUAUUACGGCAA', -2.06),
  ('CUCGAGCAAUAUUACGCCUU', -2.45),
  ('UGUUAGCAAUAUUACGAUAA', -0.767),
  ('GCUUAGCAAUAUUACGUCUC', -0.196),
  ('GUCGAGCAAUAUUACGGUUA', -2.03),
  ('GAGUAGCAAUAUUACGGUGA', -1.93),
  ('GCCGAGCAAUAUUACGUAUA', -3.29),
  ('AAGUAGCAAUAUUACGCUGU', -3.66),
  ('CUUGAGCAAUAUUACGCCGC', -1.08),
  ('UUGUAGCAAUAUUACGUUUU', -2.52),
  ('CCCGAGCAAUAUUACGUAUC', -1.94),
  ('CGCAAGCAAUAUUACGUUGA', -2.6),
  ('ACCCAGCAAUAUUACGACCC', -1.06),
  ('AGACAGCAAUAUUACGUAAA', -2.15),
  ('CAAAAGCAAUAUUACGGAUC', -3.73);

---

Experiment: self-splicing fitness, log relative to wild type (ln ratio); higher = more splicing; Tetrahymena group I intron in knt gene, E. coli kanamycin selection, DiMSum; sequences stand for … in CUCUCU…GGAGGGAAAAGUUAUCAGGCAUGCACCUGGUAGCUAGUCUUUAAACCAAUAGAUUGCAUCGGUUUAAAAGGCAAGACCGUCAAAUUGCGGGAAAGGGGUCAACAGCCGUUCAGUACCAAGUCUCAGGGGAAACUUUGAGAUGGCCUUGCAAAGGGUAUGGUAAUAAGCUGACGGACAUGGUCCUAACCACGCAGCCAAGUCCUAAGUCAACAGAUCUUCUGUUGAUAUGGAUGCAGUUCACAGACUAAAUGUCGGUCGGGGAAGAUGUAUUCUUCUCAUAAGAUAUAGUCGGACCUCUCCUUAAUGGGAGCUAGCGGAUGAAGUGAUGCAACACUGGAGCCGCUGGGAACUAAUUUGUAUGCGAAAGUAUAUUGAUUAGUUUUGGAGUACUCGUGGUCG
Details: 30 °C
measuredProperty: self-splicing fitness (ln)

INSERT INTO assay_data (sequenceinput, testvalue) VALUES
  ('CAGGAGCAAUAUUACGCGUC', -4.22),
  ('AGCUAGCAAUAUUACGAAUG', -2.09),
  ('AUGGAGCAAUAUUACGUAAC', -2.91),
  ('CUCGAGCAAUAUUACGCGUA', -2.97),
  ('CGAGAGCAAUAUUACGUAGC', -4.39),
  ('GAUAAGCAAUAUUACGUGUG', -1.96),
  ('CGGUAGCAAUAUUACGCAUG', -0.808),
  ('UCCAAGCAAUAUUACGGCUA', -1.98),
  ('GCCCAGCAAUAUUACGAGUA', -0.468),
  ('CACAAGCAAUAUUACGCGGG', -3),
  ('CAUGAGCAAUAUUACGUUUA', -3.69),
  ('AUCAAGCAAUAUUACGACCU', -0.924),
  ('GAUUAGCAAUAUUACGACGU', -0.442),
  ('UUCGAGCAAUAUUACGAGUG', -1.81),
  ('GAGAAGCAAUAUUACGCUGG', -2.87),
  ('CGUGAGCAAUAUUACGCGCA', -0.962);

---

Test: self-splicing fitness, log relative to wild type (ln ratio); higher = more splicing; Tetrahymena group I intron in knt gene, E. coli kanamycin selection, DiMSum; sequences stand for … in CUCUCU…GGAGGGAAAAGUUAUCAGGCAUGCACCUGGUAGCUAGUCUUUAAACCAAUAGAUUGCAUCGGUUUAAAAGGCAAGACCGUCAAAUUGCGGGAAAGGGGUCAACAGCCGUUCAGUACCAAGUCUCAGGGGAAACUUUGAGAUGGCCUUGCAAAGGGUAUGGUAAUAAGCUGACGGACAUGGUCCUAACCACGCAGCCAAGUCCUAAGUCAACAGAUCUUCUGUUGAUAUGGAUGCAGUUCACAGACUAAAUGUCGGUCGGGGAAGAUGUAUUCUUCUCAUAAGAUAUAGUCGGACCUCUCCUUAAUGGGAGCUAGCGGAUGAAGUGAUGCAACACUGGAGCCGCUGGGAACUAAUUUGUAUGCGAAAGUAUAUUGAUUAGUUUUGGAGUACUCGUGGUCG
Details: 37 °C
measuredProperty: self-splicing fitness (ln)

INSERT INTO assay_data (sequenceinput, testvalue) VALUES
  ('GACAAGCAAUAUUACGACAC', 0.0329),
  ('UGACAGCAAUAUUACGCAAG', -2.73),
  ('CCCAAGCAAUAUUACGUGAC', -2.03),
  ('GCCCAGCAAUAUUACGAUCG', -1.44),
  ('CGCUAGCAAUAUUACGAUCA', -0.635),
  ('CUAAAGCAAUAUUACGUUGA', -2.6),
  ('UCAGAGCAAUAUUACGCAAC', -1.91),
  ('GCGAAGCAAUAUUACGCACA', -0.906),
  ('GCUUAGCAAUAUUACGUAAG', -0.181),
  ('CAGGAGCAAUAUUACGCUGG', -0.934),
  ('UUACAGCAAUAUUACGCCAU', -2.48),
  ('UACCAGCAAUAUUACGUAUU', -2.6),
  ('UAAGAGCAAUAUUACGAGCU', -2.6),
  ('UGGAAGCAAUAUUACGGAGG', -0.696),
  ('AGCCAGCAAUAUUACGUUUA', -2.48),
  ('CUGCAGCAAUAUUACGCUGU', -2.8),
  ('UAAUAGCAAUAUUACGGUUU', -1.39),
  ('AGCAAGCAAUAUUACGCUAG', -2.1),
  ('CUAUAGCAAUAUUACGAGUU', -0.864),
  ('UCUCAGCAAUAUUACGCGUG', -3.11),
  ('CAUCAGCAAUAUUACGUUCG', -0.286),
  ('AUAAAGCAAUAUUACGGAUG', -0.844),
  ('CCGGAGCAAUAUUACGCCAU', -2.18),
  ('CCUGAGCAAUAUUACGACAU', -2.87),
  ('CACCAGCAAUAUUACGGUAG', -1.69),
  ('GCUAAGCAAUAUUACGCGUA', -0.718),
  ('GCCCAGCAAUAUUACGUUCU', -1.18),
  ('GCUCAGCAAUAUUACGAUAG', -1.26),
  ('CAGAAGCAAUAUUACGGCGC', -1.6),
  ('GCACAGCAAUAUUACGUGGC', -2.74),
  ('UCUAAGCAAUAUUACGACCG', -0.00302),
  ('AAAGAGCAAUAUUACGUAUA', -1.89),
  ('AAUUAGCAAUAUUACGACCC', 0.136),
  ('GGCCAGCAAUAUUACGGUAC', -2.3);
